System: HL-60
assay.explanation: Inhibitory activity towards HL-60 cells at 72 hours
Type: functional, cell-based
condition: Homo sapiens, HL-60, 72 h
Listing of entries alongside the reported IC50.
State the answer as a number, implicitly in µM.

1. CC(=O)OCO/N=[N+](\[O-])N1CCCC1 ... 6.4

// moving on: another record for IC50
Noted for CCN(CC)/[N+]([O-])=N/OCOC(C)=O : its IC50 reads 8.3
